test system: HOP-62 NSCLC; assay: NCI tumour cell line growth inhibition, 48 h
readout: TGI

| molecule | TGI |
| --- | --- |
| Cc1cc(N(CCNc2ccnc3cc(Cl)ccc23)Cc2cccs2)nc(Cl)n1 | 3.65 µM |
| Cc1nn(CCO)c(C)c1N=[N+]([O-])c1c(C)nn(CCO)c1C | > 57.9 µM |
| COc1cc([C@@H]2C3C(=O)c4ccccc4C3[C@@H](c3cc(OC)c(OC)c(OC)c3)C23Cc2ccccc2C3=O)cc(OC)c1OC (stereo not given in full) | > 100 µM |
| O=C(O)c1ccccc1Sc1ccccc1[N+](=O)[O-] | > 100 µM |
| O=[N+]([O-])c1ccc(-c2noc(-c3ccccc3)c2C2=NCCN2)cc1 | > 100 µM |

Problem: Please look up its TGI: COc1cc2ccc1NC(=O)N1CCN(CC1)C(=O)Nc1ccc(cc1OC)-c1ccc(c(OC)c1)NC(=O)N1CCN(CC1)C(=O)Nc1ccc-2cc1OC
Result: > 100 µM

Problem: Please look up its TGI: O=C(O)C1=CN=C(C(=O)O)NN1
Result: > 100 µM

Problem: Please look up its TGI: Cc1cc2c3ccccc3nc2c2cc[nH]c(C)c12
Result: > 64.7 µM

Problem: Please look up its TGI: COC(=O)c1cc(C)ccc1/C=C1\Cc2cccc(C)c2C1=O
Result: > 100 µM

Problem: Please look up its TGI: CCOC(=O)/C(C#N)=C/c1ccc(SCc2ccco2)c([N+](=O)[O-])c1
Result: > 100 µM

Problem: Please look up its TGI: O=S(/C=C/C=C/S(=O)(=O)c1ccccc1)c1ccccc1 (stereo not given)
Result: > 10 µM

Problem: Please look up its TGI: Cn1ncc2c(Nc3ccc(Cl)cc3)c3ccccc3nc21
Result: 31.9 µM

----------
// values below are reported TGI
tested on: UACC-257 melanoma; assay: NCI tumour cell line growth inhibition, 48 h

Record excerpt, results attached:
| molecule | experimental_system | TGI |
| --- | --- | --- |
| c1ccc2c(CC3NCCN3)cccc2c1 | UACC-257 melanoma | > 100 µM |
| C/C(=N/OC(=O)c1cccc2c(=O)c3ccccc3[nH]c12)[C@H]1CC[C@H]2[C@@H]3CCC4=C/C(=N/OC(=O)c5cccc6c(=O)c7ccccc7[nH]c56)CC[C@]4(C)[C@H]3CC[C@]12C | UACC-257 melanoma | 33.4 µM |
| CC(C)(CN1CCCCC1)C(=O)/C=C/c1ccc(Cl)c(Cl)c1 | UACC-257 melanoma | 2.41 µM |
| C[Si](C)(c1ccccc1)C1CC(=O)CC(=O)C1 | UACC-257 melanoma | > 100 µM |
| CC1=NN(C(=O)CC(=O)Nc2ccccc2)C(=O)C1N=Nc1ccc(C(=O)O)cc1 (stereo not given) | UACC-257 melanoma | > 100 µM |

Problem: Please look up its TGI: O=C1C(=Cc2cccs2)C(=O)N(CCc2ccccc2)S(=O)(=O)N1CCc1ccccc1
Result: > 50 µM

Problem: Please look up its TGI: Cc1cc(N(CCNc2ccnc3cc(Cl)ccc23)Cc2cccs2)nc(Cl)n1
Result: 3.56 µM

Problem: Please look up its TGI: C[n+]1c2ccccc2c(Nc2ccc(N3CCCCC3)cc2)c2[nH]c3ccccc3c21
Result: 1.07 µM

Problem: Please look up its TGI: O=C(CCc1ccc(O)c(O)c1)NCCc1cc(O)cc(OCc2ccccc2)c1
Result: > 100 µM

Problem: Please look up its TGI: COc1cc2c[n+](C)c3c4cc(OC)c(OC)cc4c(OCc4ccccc4)cc3c2cc1OC
Result: 3.38 µM

Problem: Please look up its TGI: O=c1[nH]c2cc(F)c(F)cc2nc1Cc1ccccc1
Result: > 100 µM

Problem: Please look up its TGI: Cc1ccc(S(=O)(=O)NC(C(=O)O)C(C)C)cc1 (stereo not given)
Result: > 100 µM

Problem: Please look up its TGI: Cc1cc2c3ccccc3nc2c2cc[nH]c(C)c12
Result: 46.9 µM

Problem: Please look up its TGI: S=C1N=C2C(=N1)n1c3c(c4ccccc41)CCCC23 (stereo not given)
Result: > 100 µM

Problem: Please look up its TGI: CCc1cccc(C)c1NC(=O)CC(=O)NNC(N)=S
Result: > 100 µM

Problem: Please look up its TGI: O=C(Nc1ccc(Cl)c(Cl)c1)C(=O)C(C(=O)c1ccccc1F)C1OC(=O)c2ccccc21 (stereo not given)
Result: > 100 µM

Problem: Please look up its TGI: Cc1ccccc1N(CC(=O)O)S(=O)(=O)c1ccccc1
Result: > 100 µM

Problem: Please look up its TGI: COc1ccc2c(c1)[n+]([O-])c(C#N)c(NC(=O)c1cccs1)[n+]2[O-]
Result: > 100 µM

Problem: Please look up its TGI: CC[C@@]1(O)C(=O)OCc2c1cc1n(c2=O)Cc2c-1nc1ccccc1c2Cl
Result: 7.01 µM

Problem: Please look up its TGI: COc1cc([C@@H]2C3C(=O)c4ccccc4C3[C@@H](c3cc(OC)c(OC)c(OC)c3)C23Cc2ccccc2C3=O)cc(OC)c1OC (stereo not given in full)
Result: > 100 µM
